Target: GSK-3αβ
Assay: GSK-3 kinase inhibition (GS-1 substrate)
Settings: read-out: IC50 μM Kinases GSK3, buffer A, 30° C., 15 μM ATP
metric: IC50 (µM)

Consider the following illustrative entries.
[
  {
    "compound": "O=C(Nc1csc(-c2ccncc2)n1)Nc1cccc2c1C1CCCCN1C2=O (stereo not shown)",
    "target under test": "GSK-3αβ",
    "numeric result": 0.13
  },
  {
    "compound": "Cc1cccc(NC(=O)Nc2cccc3c2C2CC4(CCN2C3=O)OCCO4)n1 (stereo not shown)",
    "target under test": "GSK-3αβ",
    "numeric result": 0.92
  },
  {
    "compound": "COc1cc(NC(=O)Nc2cccc3c2C2CC4(CCN2C3=O)OCCO4)nc2ccccc12 (stereo not shown)",
    "target under test": "GSK-3αβ",
    "numeric result": 1
  }
]

I. CC(C)(C)OC(=O)n1ccc(NC(=O)Nc2cccc3c2C2CCCCN2C3=O)n1 (stereo not shown)
II. Cc1cccc(NC(=O)Nc2cccc3c2C2CC4(CCN2C3=O)SCCS4)n1 (stereo not shown)
Parameter metric = IC50. Return the lower-valued option from I and II . Record your answer as the label of the chosen record. I
(I: 0.4 µM, II: 2 µM)

1. O=C(Nc1cc[nH]n1)Nc1cccc2c1C1CCCCN1C2=O (stereo not shown)
2. O=C(Nc1cccc2c1C1CCCCN1C2=O)Nc1ncccc1Br (stereo not shown)
Parameter metric = IC50. Return the lower-valued option from 1 and 2 . Record your answer as the label of the chosen record. 2
(2: 0.17 µM, 1: 0.47 µM)

a. O=C(Nc1cc(O)c2ccccc2n1)Nc1cccc2c1C1CC(O)CCN1C2=O (stereo not shown)
b. COC1CCN2C(=O)c3cccc(NC(=O)Nc4ccccn4)c3C2C1 (stereo not shown)
c. COC1CCN2C(=O)c3cccc(NC(=O)Nc4cnc(C)cn4)c3C2C1 (stereo not shown)
d. O=C(Nc1cccc(F)n1)Nc1cccc2c1C1CCCCN1C2=O (stereo not shown)
Sort low-to-high on IC50, please. Your answer should be the labels, listed in the requested order. d, b, c, a
(d: 0.026 µM, b: 0.081 µM, c: 0.14 µM, a: 2.5 µM)

A. O=C1c2cccc(NC(=S)Nc3ccccn3)c2C2CCCCN12 (stereo not shown)
B. Cn1ccc(NC(=O)Nc2cccc3c2C2CCCCN2C3=O)n1 (stereo not shown)
Parameter metric = IC50. Return the lower-valued option from A and B . Record your answer as the label of the chosen record. B
(B: 0.31 µM, A: 2.3 µM)

A. O=C(Nc1ccccn1)Nc1cccc2c1C1CC3(CCN1C2=O)SCCS3 (stereo not shown)
B. O=C(Nc1ccc(Br)cn1)Nc1cccc2c1C1CCCCN1C2=O (stereo not shown)
C. COC1CCN2C(=O)c3cccc(NC(=O)Nc4cccc(C)n4)c3C2C1 (stereo not shown)
Sort low-to-high on IC50, please. Your answer should be the labels, listed in the requested order. A, B, C
(A: 0.033 µM, B: 0.076 µM, C: 0.32 µM)

* * *

Target: CDK5/D25 (Homo sapiens, UniProt Q00535)
Construct: made in house
Sequence (Q00535 whole entry): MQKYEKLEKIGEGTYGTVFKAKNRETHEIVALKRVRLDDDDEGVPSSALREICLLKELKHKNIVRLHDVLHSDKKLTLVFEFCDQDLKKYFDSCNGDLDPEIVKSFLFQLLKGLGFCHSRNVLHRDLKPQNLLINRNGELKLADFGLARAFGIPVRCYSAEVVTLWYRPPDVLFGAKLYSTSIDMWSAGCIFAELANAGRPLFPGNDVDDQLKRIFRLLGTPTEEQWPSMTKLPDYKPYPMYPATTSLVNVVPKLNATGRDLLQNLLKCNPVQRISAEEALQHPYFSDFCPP
Sequence (Q15078 99-307 partner limits assumed): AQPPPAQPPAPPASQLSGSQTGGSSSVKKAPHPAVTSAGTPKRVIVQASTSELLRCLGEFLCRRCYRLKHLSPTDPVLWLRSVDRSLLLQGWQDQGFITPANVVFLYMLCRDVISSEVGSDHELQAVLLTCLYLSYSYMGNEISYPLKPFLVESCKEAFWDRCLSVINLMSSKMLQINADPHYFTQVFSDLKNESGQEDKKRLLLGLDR
Assay: CDK5 kinase inhibition (33P-ATP, histone H1)
Assay type: biochemical
Conditions: buffer C, 30° C., 15 μM ATP, read-out: IC50 μM Kinases CDK5
metric: IC50 (µM)

[
  {
    "compound": "Cc1nc(NC(=O)Nc2cccc3c2C2CCCCN2C3=O)cs1 (stereo not shown) [Compound 35]",
    "metric": "IC50",
    "numeric result": 0.53
  },
  {
    "compound": "O=C(Nc1csc(-c2ccncc2)n1)Nc1cccc2c1C1CCCCN1C2=O (stereo not shown) [Compound 37]",
    "metric": "IC50",
    "numeric result": 1.7
  },
  {
    "compound": "Cc1cc(NC(=O)Nc2cccc3c2C2CCCCN2C3=O)no1 (stereo not shown) [Compound 24]",
    "metric": "IC50",
    "numeric result": 2.7
  },
  {
    "compound": "COC1CCN2C(=O)c3cccc(NC(=O)Nc4cnc(C)cn4)c3C2C1 (stereo not shown) [Compound 59]",
    "metric": "IC50",
    "numeric result": 0.32
  },
  {
    "compound": "O=C(Nc1ccc(Br)cn1)Nc1cccc2c1C1CCCCN1C2=O (stereo not shown) [Compound 18]",
    "metric": "IC50",
    "numeric result": 0.13
  }
]

1. O=C(Nc1cccc2c1C1CCCCN1C2=O)Nc1ncccc1Br (stereo not shown) [Compound 75]
2. O=C(Nc1ccccn1)Nc1cccc2c1C1CC3(CCN1C2=O)SCCS3 (stereo not shown) [Compound 16]
Parameter metric = IC50. Return the lower-valued option from 1 and 2 . Record your answer as the label of the chosen record. 2
(2: 0.24 µM, 1: 0.48 µM)

* * *

Target: CDK5/D25 (Homo sapiens)
Construct: made in house
Experiment: CDK5 kinase inhibition (33P-ATP, histone H1)
Type: biochemical
Conditions: buffer C, 30° C., 15 μM ATP, read-out: IC50 μM Kinases CDK5
metric: IC50 (µM)

[
  {
    "compound": "COC1CCN2C(=O)c3cccc(NC(=O)Nc4ccn(C)n4)c3C2C1 (stereo not shown) [Compound 60]",
    "IC50 (µM)": 2.3
  },
  {
    "compound": "O=C1c2cccc(NC(=S)Nc3cc[nH]n3)c2C2CCCCN12 (stereo not shown) [Compound 64]",
    "IC50 (µM)": 56
  },
  {
    "compound": "Cc1cccc(NC(=O)Nc2cccc3c2C2CC(O)CCN2C3=O)n1 (stereo not shown) [Compound 108]",
    "IC50 (µM)": 1
  }
]

P. O=C(Nc1cnccn1)Nc1cccc2c1C1CC3(CCN1C2=O)SCCS3 (stereo not shown) [Compound 17]
Q. Cc1cnc(NC(=O)Nc2cccc3c2C2CC4(CCN2C3=O)SCCS4)cn1 (stereo not shown) [Compound 51]
Quick check, higher IC50 between P and Q ? Record your answer as the label of the chosen record. Q
(Q: 0.22 µM, P: 0.15 µM)

I. O=C(Nc1cnccn1)Nc1cccc2c1C1C[C@@H](O)CCN1C2=O (stereo partly shown) [Compound 105]
II. O=C(Nc1cccc(Br)n1)Nc1cccc2c1C1CCCCN1C2=O (stereo not shown) [Compound 19]
Parameter metric = IC50. Return the lower-valued option from I and II . Record your answer as the label of the chosen record. II
(II: 0.04 µM, I: 0.084 µM)

a. COc1cc(NC(=O)Nc2cccc3c2C2CC(O)CCN2C3=O)nc2ccccc12 (stereo not shown) [Compound 109]
b. COC1CCN2C(=O)c3cccc(NC(=O)Nc4ccccn4)c3C2C1 (stereo not shown) [Compound 53]
Quick check, higher IC50 between a and b ? Record your answer as the label of the chosen record. a

1. COC1CCN2C(=O)c3cccc(NC(=O)Nc4cc(C)ccn4)c3C2C1 (stereo not shown) [Compound 58]
2. COC1CCN2C(=O)c3cccc(NC(=O)Nc4ncccc4C)c3C2C1 (stereo not shown) [Compound 57]
Quick check, higher IC50 between 1 and 2 ? Record your answer as the label of the chosen record. 2
(2: 1.1 µM, 1: 0.32 µM)

a. O=C(Nc1cscn1)Nc1cccc2c1C1CCCCN1C2=O (stereo not shown) [Compound 26]
b. O=C(Nc1cc(-c2ccccc2)on1)Nc1cccc2c1C1CCCCN1C2=O (stereo not shown) [Compound 25]
Quick check, higher IC50 between a and b ? Record your answer as the label of the chosen record. b
(b: 1.5 µM, a: 0.43 µM)

I. O=C(Nc1nc2ccccc2s1)Nc1cccc2c1C1CCCCN1C2=O (stereo not shown) [Compound 34]
II. O=C1c2cccc(NC(=S)Nc3ccc(Br)cn3)c2C2CCCCN12 (stereo not shown) [Compound 66]
Parameter metric = IC50. Return the lower-valued option from I and II . Record your answer as the label of the chosen record. II
(II: 8.7 µM, I: 16 µM)

P. COc1ccc(NC(=O)Nc2cccc3c2C2CCCCN2C3=O)cn1 (stereo not shown) [Compound 96]
Q. O=C1c2cccc(NC(=S)Nc3cccc(Br)n3)c2C2CCCCN12 (stereo not shown) [Compound 67]
R. Cn1ccc(NC(=O)Nc2cccc3c2C2CCCCN2C3=O)n1 (stereo not shown) [Compound 41]
S. Cc1cccnc1NC(=O)Nc1cccc2c1C1CC3(CCN1C2=O)OCCO3 (stereo not shown) [Compound 45]
T. O=C1c2cccc(NC(=S)Nc3ccccn3)c2C2CC3(CCN12)SCCS3 (stereo not shown) [Compound 70]
Please list the entries, largest IC50 first. Your answer should be the labels, listed in the requested order. T, Q, S, P, R

1. COC1CCN2C(=O)c3cccc(NC(=O)Nc4cccc(C)n4)c3C2C1 (stereo not shown) [Compound 56]
2. O=C(Nc1cccc(F)n1)Nc1cccc2c1C1CCCCN1C2=O (stereo not shown) [Compound 23]
Quick check, higher IC50 between 1 and 2 ? Record your answer as the label of the chosen record. 1
